Recorded pIC50 values for a group of binders are listed next.
Target: T1, SCRIB PDZ domain 2 (human, UniProt Q14160 862-950)
T1 chain: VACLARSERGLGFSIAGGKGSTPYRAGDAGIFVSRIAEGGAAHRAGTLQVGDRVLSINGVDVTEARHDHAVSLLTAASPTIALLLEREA
Test: ELISA
pIC50: −log10 of the molar value. Where no end group is shown, it is not given here.
ASSAY READOUT: pIC50

{"BINDER": "KHFRETEV (not fully specified) [peptide 2, C terminus of the HTLV-1 Tax protein]", "READOUT NUMBER": 5.28}
{"BINDER": "RQIKIWFQNRRMKWKKRSWFETWV (not fully specified) [designed SCRIB PDZ-binding peptide Π-RSWFETWV (peptide 14)]", "READOUT NUMBER": 5.33}

Cited source for all entries: paper PMC2553845
